Source of measurements: the RNAGym collection of RNA variant scans (doi:10.7554/elife.80360)

B1: CPEB3 Ribozyme (parent)
chain: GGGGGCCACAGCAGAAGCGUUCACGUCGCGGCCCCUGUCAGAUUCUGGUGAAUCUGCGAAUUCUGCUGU

variants of: B1; test: self-cleavage, relative activity (ratio to wild type); higher = more cleavage; co-transcriptional
Label scheme for self-cleavage: lower than 0.7 is F, 0.7 and above is T.

Answered examples (6):
CHANGES: A42U U49G
QUALITATIVE LABEL: T
--
CHANGES: C33U U49A
QUALITATIVE LABEL: T
--
CHANGES: G1C G58A
QUALITATIVE LABEL: F
--
CHANGES: A23G C34A
QUALITATIVE LABEL: F
--
CHANGES: G47C G58U
QUALITATIVE LABEL: T
--
CHANGES: G5C U43G
QUALITATIVE LABEL: F

Check the entry A16C C54A : does self-cleavage equal or exceed 0.7?
F

Check the entry A42U A59G : does self-cleavage equal or exceed 0.7?
T
